# Experimental system: Beta-lactamase TEM (Escherichia coli, UniProt P62593)
# Sequence (P62593 whole entry): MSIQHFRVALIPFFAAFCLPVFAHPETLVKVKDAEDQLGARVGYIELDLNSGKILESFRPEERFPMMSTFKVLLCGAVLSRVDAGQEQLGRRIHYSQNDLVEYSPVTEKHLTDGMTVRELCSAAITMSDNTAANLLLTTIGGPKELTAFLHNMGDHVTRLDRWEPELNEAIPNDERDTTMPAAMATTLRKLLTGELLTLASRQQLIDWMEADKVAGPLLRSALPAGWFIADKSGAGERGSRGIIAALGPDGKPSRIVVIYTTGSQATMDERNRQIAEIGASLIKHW
# Procedure summary: Inhibitory constant was determined against class A RTEM-1 Beta-lactamase from Escherichia coli
Measure: Ki (µM)
Just the number please, in µM, no unit attached.

Challenge: Tell me the measured Ki of O=C(O)c1ccc(CCB(O)O)cc1 , please.
Response given: 49

Challenge: // lookup Ki for Nc1cccc(B(O)O)c1
Response given: 3700

Challenge: GET /values?readout=Ki&item= OB(O)c1ccc(Br)cc1
Response given: 28

Challenge: What value of Ki has been reported for the following compound? OB(O)c1ccccc1 [PHENYLBORONIC ACID]
Response given: 491
